- TEST NAME: Drug level in tumor of human MDA-MB-361 xenograft in vivo model at 50 mg/kg, po measured at 24 hrs post dose
- Type: ADME, organism-based, Neoplasm
- Set-up: dose 50 mg/kg, route oral
- TEST PARAMETERS: read-out: Drug uptake
REPORTED METRIC: concentration at 24 h (ng/g)
Please state the figure in ng/g; there is no need to write the unit.

Task item: What value of concentration at 24 h has been reported for the following molecule? `Cc1c2c(n3c1CCCNC(=O)[C@H](C)Nc1cc-3ccc1C(N)=O)CC(C)(C)CC2=O`
Reply: 1270

* * *

- TEST NAME: Antiproliferative activity against human KB 8.5 cells
REPORTED METRIC: pIC50
Note on units: pIC50 is unitless, being -log10 of a concentration expressed in mol/L.

Task item: What value of pIC50 has been reported for the following compound? `Cc1c2c(n3c1CCCNC(=O)[C@H](C)Nc1cc-3ccc1C(N)=O)CC(C)(C)CC2=O`
Reply: 7.31
